- Tested on: SpTbr T-box DNA-binding domain (GST fusion);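 further: protein at 200 nM in PBS on universal double-stranded arrays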
- Sequence: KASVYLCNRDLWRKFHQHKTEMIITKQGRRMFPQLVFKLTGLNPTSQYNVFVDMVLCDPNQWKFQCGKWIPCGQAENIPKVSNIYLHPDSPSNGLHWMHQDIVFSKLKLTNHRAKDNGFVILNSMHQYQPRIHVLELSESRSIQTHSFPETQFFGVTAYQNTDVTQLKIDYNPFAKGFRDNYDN
- method notes: PBM E-score of 8-mer (E-score (dimensionless, -0.5 to 0.5)); Tbr is Tbrain of the sea star Patiria miniata (Pm) or the sea urchin Strongylocentrotus purpuratus (Sp); higher = stronger binding preference
- measurement setup: the construct has about 5 more residues each side
Whole data set: some 33,000 sequences, median “E-score (dimensionless, -0.5 to 0.5)” near -0.046, cut for the highest 2% near 0.36. What follows is part of a selection rich in the highest values, with near analogues and random picks from the rest.
Classify by measured PBM E-score of 8-mer: t if it is equal to or exceeds 0.2, f if it is smaller.

Record GGCCACAA ; criterion: PBM E-score of 8-mer no lower than 0.2. Met?
f

Record AGCGTCCC ; criterion: PBM E-score of 8-mer no lower than 0.2. Met?
f

Record GGTGTAGA ; criterion: PBM E-score of 8-mer no lower than 0.2. Met?
t

Record CTGTCAAA ; criterion: PBM E-score of 8-mer no lower than 0.2. Met?
t

Record AAAAGGTA ; criterion: PBM E-score of 8-mer no lower than 0.2. Met?
f

Record AACTTGTC ; criterion: PBM E-score of 8-mer no lower than 0.2. Met?
t

Record CGTGTTAC ; criterion: PBM E-score of 8-mer no lower than 0.2. Met?
t

Source: the supplement of paper PMC4166925
